# Assay Text: in vitro
# Experimental Parameters: mouse, microsomes
Dear colleague, classification is by microsomal CLint at 1 µM, with ranges listed here: Low: < 80 µL/min/mg; Mid: ≥ 80 µL/min/mg and < 200 µL/min/mg; High: ≥ 200 µL/min/mg

Here are 10 molecules together with their reported answers.
INSERT INTO results (smiles_input, class_name) VALUES
  ('Cn1cc(-c2ccc(-c3cncc4ccc(-c5nccn5C)cc34)cc2)cn1', 'High'),
  ('Cn1cc(-c2ccc(-c3cncc4ccc(S(N)(=O)=O)cc34)cc2)cn1', 'Mid'),
  ('Cn1cc(-c2ccc(-c3cncc4ccc(C(=O)N5CCCC5)nc34)cc2)cn1', 'High'),
  ('Cn1cc(-c2ccc(-c3cncc4ccc(N5CCCC5=O)nc34)cc2)cn1', 'High'),
  ('Cn1cc(-c2ccc(-c3cncc4ccc(-c5ncco5)cc34)cc2)cn1', 'Mid'),
  ('Cn1cc(-c2ccc(-c3cnc(N)c4ccc(C(=O)N5CCNCC5)nc34)cc2)cn1', 'Low'),
  ('Cn1cc(-c2ccc(-c3cncc4ccc(C(=O)N5CCC5)nc34)cc2)cn1', 'Mid'),
  ('CNC(=O)c1ccc2cncc(-c3ccc(-c4cnn(C)c4)cc3)c2c1', 'High'),
  ('Cn1cc(-c2ccc(-c3cncc4ccc(-c5nccn5C)nc34)cc2)cn1', 'High'),
  ('COC1CN(C(=O)c2ccc3c(N)ncc(-c4ccc(-c5cnn(C)c5)cc4)c3n2)C1', 'Low');

Each molecule maps to one class by microsomal CLint at 1 µM. Which class for `CNC(=O)c1ccc2cncc(-c3ccc4c(c3)CS(=O)(=O)N4)c2n1` ? Low

Each molecule maps to one class by microsomal CLint at 1 µM. Which class for `CNC(=O)c1ccc2cncc(-c3ccc4c(cnn4C)c3)c2n1` ? High

Each molecule maps to one class by microsomal CLint at 1 µM. Which class for `Cn1cc(-c2ccc(-c3cnc(N)c4ccc(C(=O)N5CC(C)(F)C5)nc34)cc2)cn1` ? Mid

Each molecule maps to one class by microsomal CLint at 1 µM. Which class for `Cn1cc(-c2ccc(-c3cncc4ccc(-c5ccnn5C)nc34)cc2)cn1` ? High

Each molecule maps to one class by microsomal CLint at 1 µM. Which class for `Cn1cc(-c2ccc(-c3cncc4ccc(C(=O)N5CCNCC5)nc34)cc2)cn1` ? Low

Each molecule maps to one class by microsomal CLint at 1 µM. Which class for `CNC(=O)c1ccc2cncc(-c3ccc4c(c3)CS(=O)(=O)N4C)c2n1` ? Low

Each molecule maps to one class by microsomal CLint at 1 µM. Which class for `Cn1cc(-c2ccc(-c3cnc(N)c4ccc(C(=O)N5CC(C)(F)C5)cc34)cc2)cn1` ? Low
